# assayedSystem: ACE-2 (Homo sapiens, UniProt Q9BYF1)
# Construct: a stop codon inserted after the serine immediately preceding the transmembrane domain; made in house; host or cells: CHO K1 cells (transient transfection, purified from conditioned medium)
# Sequence (Q9BYF1 18-740 limits assumed): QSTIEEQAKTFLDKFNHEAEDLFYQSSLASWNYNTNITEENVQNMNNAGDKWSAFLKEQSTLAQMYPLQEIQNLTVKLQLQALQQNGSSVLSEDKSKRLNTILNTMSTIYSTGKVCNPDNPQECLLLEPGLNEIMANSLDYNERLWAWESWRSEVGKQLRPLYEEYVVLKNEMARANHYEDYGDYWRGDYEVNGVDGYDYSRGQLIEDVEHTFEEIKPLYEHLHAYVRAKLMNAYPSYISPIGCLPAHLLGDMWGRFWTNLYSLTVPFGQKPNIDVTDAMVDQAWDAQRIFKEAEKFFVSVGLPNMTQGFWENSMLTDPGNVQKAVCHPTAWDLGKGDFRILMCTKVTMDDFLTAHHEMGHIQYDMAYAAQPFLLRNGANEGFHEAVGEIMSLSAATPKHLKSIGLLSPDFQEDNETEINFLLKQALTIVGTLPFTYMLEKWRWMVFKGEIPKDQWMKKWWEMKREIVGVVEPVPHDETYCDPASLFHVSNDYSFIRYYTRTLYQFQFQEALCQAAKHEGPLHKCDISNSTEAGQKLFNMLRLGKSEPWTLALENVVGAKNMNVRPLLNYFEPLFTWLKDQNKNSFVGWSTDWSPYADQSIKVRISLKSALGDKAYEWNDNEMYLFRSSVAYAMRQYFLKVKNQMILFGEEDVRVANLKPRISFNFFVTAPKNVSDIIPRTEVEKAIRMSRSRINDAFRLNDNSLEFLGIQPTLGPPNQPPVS
# method: ACE-2 Competitive Substrate Assay (ACS Assay)
# Format: biochemical
# measurementSetup: Ki class; compounds tested in 5% DMSO, 12 compound concentrations, Ki=Kiapp/(1+[S]/Km); read-out: Human ACE-2 Activity
measuredQuantity: Ki

compound | result
CC(C)CC(N[C@@H](Cc1cncn1CCc1ccccc1)C(=O)O)C(=O)O (single isomer, unassigned) [JK] | < 100 nM
CC(C)C[C@H](N[C@@H](Cc1cncn1Cc1cc(F)cc(F)c1)C(=O)O)C(=O)O | < 100 nM
CC(C)C[C@H](N[C@@H](Cc1ccc(OCc2ccccc2)cc1)C(=O)O)C(=O)O | 100 to 500 nM
CC(C)C[C@H](N[C@@H](Cc1csc(-c2ccc3c(c2)CCO3)n1)C(=O)O)C(=O)O | < 100 nM
CC(C)C[C@H](N[C@@H](CCC(=O)Nc1nc2ccc(F)cc2s1)C(=O)O)C(=O)O | > 500 nM
CC(C)C[C@H](N[C@@H](Cc1ccc(-c2ccsc2)o1)C(=O)O)C(=O)O | > 500 nM
CC(C)C[C@H](N[C@@H](Cc1ccc(-c2ccc(Cl)cc2)o1)C(=O)O)C(=O)O | > 500 nM
CC(C)C[C@H](N[C@@H](Cc1cccc(OCc2cc(F)cc(F)c2)c1)C(=O)O)C(=O)O | 100 to 500 nM
COC(=O)[C@@H](Cc1cccc(O)c1)N[C@@H](CC(C)C)C(=O)OCc1ccccc1 | > 500 nM
CC(C)C[C@H](N[C@@H](CC(=O)Nc1nc2cc(Cl)c(Cl)cc2s1)C(=O)O)C(=O)O | 100 to 500 nM
CC(C)C[C@H](N[C@@H](Cc1ccc(OC(C)(C)C)cc1)C(=O)O)C(=O)O | > 500 nM
CC(C)C[C@H](N[C@@H](CC1COC(=O)N1Cc1cc(Cl)cc(Cl)c1)C(=O)O)C(=O)O (stereo in doubt) | < 100 nM
CC(C)C[C@H](N[C@@H](Cc1coc(-c2cc(Cl)cc(Cl)c2)n1)C(=O)O)C(=O)O | < 100 nM
CC(C)C[C@H](N[C@@H](CN1CCN(c2cc(F)cc(F)c2)C1=O)C(=O)O)C(=O)O | > 500 nM
CC(C)C[C@H](N[C@@H](Cn1ccn(Cc2ccc(F)c(F)c2)c1=O)C(=O)O)C(=O)O | 100 to 500 nM
CC(C)CC(N[C@@H](Cc1cncn1Cc1ccc(F)cc1)C(=O)O)C(=O)O (single isomer, unassigned) [II] | < 100 nM
CC(C)C[C@H](N[C@@H](Cc1ccc(-c2cc(Cl)cc(Cl)c2)o1)C(=O)O)C(=O)O | 100 to 500 nM
Cc1ccc(-c2nc(C[C@H](N[C@@H](CC(C)C)C(=O)O)C(=O)O)cs2)cc1 | < 100 nM
CC(C)C[C@H](N[C@@H](Cn1ccn(CC2CC2)c1=O)C(=O)O)C(=O)O | 100 to 500 nM
CC(C)C[C@H](N[C@@H](CNS(=O)(=O)c1ccc2ccccc2c1)C(=O)O)C(=O)O | > 500 nM
Cc1cc(C)cc(COc2cccc(C[C@H](N[C@@H](CC(C)C)C(=O)O)C(=O)O)c2)c1 | > 500 nM
